- Test system: Factor X, P00742
- Sequence (P00742 whole entry, looked up): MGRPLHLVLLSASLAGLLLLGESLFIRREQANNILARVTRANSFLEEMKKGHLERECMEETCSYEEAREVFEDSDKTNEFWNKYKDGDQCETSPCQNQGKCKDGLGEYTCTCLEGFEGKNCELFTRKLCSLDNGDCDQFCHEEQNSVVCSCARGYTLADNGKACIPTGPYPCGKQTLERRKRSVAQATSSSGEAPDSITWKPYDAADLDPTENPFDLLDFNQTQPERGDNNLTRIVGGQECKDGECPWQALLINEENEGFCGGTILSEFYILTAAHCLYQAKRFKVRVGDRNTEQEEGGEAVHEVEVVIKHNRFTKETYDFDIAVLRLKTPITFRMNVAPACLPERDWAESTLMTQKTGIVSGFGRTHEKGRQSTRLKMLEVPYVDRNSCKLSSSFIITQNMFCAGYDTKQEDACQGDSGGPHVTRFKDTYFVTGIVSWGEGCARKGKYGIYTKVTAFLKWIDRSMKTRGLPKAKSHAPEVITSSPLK
Metric: kcat (s⁻¹)
# number only, unit s⁻¹ dropped from output

Query block: Report kcat for FIXa-Y155F/I251S/R338E/T343R/R403E (protein) chain 1: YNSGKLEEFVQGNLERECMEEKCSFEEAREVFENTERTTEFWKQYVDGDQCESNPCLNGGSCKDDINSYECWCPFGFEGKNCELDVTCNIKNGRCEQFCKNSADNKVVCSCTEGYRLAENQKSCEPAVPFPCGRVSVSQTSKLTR chain 2: VVGGEDAKPGQFPWQVVLNGKVDAFCGGSIVNEKWIVTAAHCVETGVKITVVAGEHNIEETEHTEQKRNVSRIIPHHNYNAAINKYNHDIALLELDEPLVLNSYVTPICIADKEYTNIFLKFGSGYVSGWGRVFHKGRSALVLQYLRVPLVDRATCLESTKFRIYNNMFCAGFHEGGRDSCQGDSGGPHVTEVEGTSFLTGIISWGEECAMKGKYGIYTKVSEYVNWIKEKTKLT please.
Result block: 5.9

Query block: Report kcat for FIXa-Y155F/K228N/I251S/R318Y/R338E/R403E/E410N (protein) chain 1: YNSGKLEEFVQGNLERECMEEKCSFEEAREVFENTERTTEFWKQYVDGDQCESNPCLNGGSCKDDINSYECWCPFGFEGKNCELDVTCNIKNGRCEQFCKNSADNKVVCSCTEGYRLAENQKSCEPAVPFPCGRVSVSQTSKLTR chain 2: VVGGEDAKPGQFPWQVVLNGKVDAFCGGSIVNEKWIVTAAHCVETGVNITVVAGEHNIEETEHTEQKRNVSRIIPHHNYNAAINKYNHDIALLELDEPLVLNSYVTPICIADKEYTNIFLKFGSGYVSGWGRVFHKGYSALVLQYLRVPLVDRATCLESTKFTIYNNMFCAGFHEGGRDSCQGDSGGPHVTEVEGTSFLTGIISWGEECAMKGKYGIYTKVSEYVNWIKNKTKLT please.
Result block: 5.3

Query block: Report kcat for FIXa-Y155F/R338E/T343R/R403E/E410S (protein) chain 1: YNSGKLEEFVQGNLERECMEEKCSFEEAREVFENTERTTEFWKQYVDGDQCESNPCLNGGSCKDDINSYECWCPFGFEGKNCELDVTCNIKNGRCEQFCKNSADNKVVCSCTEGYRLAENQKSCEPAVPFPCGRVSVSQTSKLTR chain 2: VVGGEDAKPGQFPWQVVLNGKVDAFCGGSIVNEKWIVTAAHCVETGVKITVVAGEHNIEETEHTEQKRNVIRIIPHHNYNAAINKYNHDIALLELDEPLVLNSYVTPICIADKEYTNIFLKFGSGYVSGWGRVFHKGRSALVLQYLRVPLVDRATCLESTKFRIYNNMFCAGFHEGGRDSCQGDSGGPHVTEVEGTSFLTGIISWGEECAMKGKYGIYTKVSEYVNWIKSKTKLT please.
Result block: 6.8
